FYI, the data here is from patent US20240182536A1.

Molecular target: T1, human IL-18 binding protein (human, UniProt O95998 31-194)
T1 sequence (looked up): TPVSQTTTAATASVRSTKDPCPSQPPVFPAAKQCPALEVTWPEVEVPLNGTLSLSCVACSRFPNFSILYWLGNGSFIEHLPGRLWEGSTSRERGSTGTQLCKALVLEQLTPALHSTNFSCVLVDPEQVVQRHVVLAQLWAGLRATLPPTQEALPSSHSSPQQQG
Experiment: cell-based or functional assay
measurementName: Ratio (-BP/+BP), DF-10000

>  <binder>
yeast display IL-18 variant K53S, S55F, R104K, H109Y (ligand) YFGKLESKLSVIRNLNDQVLFIDQGNRPLFEDMTDSDMRDNAPRTIFIISMYSDFQPRGMAVTISVKSEKISTLSSENKIISFKEMNPPDNIKDTKSDIIFFQKSVPGYDNKMQFESSSYEGYFLASEKERDLFKLILKKEDELGDRSIMFTVQNED

>  <measuredNumber>
3.08

$$$$
>  <binder>
yeast display IL-18 variant K53S, S55Y (ligand) YFGKLESKLSVIRNLNDQVLFIDQGNRPLFEDMTDSDMRDNAPRTIFIISMYSDYQPRGMAVTISVKSEKISTLSSENKIISFKEMNPPDNIKDTKSDIIFFQRSVPGHDNKMQFESSSYEGYFLASEKERDLFKLILKKEDELGDRSIMFTVQNED

>  <measuredNumber>
0.93

$$$$
>  <binder>
yeast display IL-18 variant K53H, S55V (ligand) YFGKLESKLSVIRNLNDQVLFIDQGNRPLFEDMTDSDMRDNAPRTIFIISMYHDVQPRGMAVTISVKSEKISTLSSENKIISFKEMNPPDNIKDTKSDIIFFQRSVPGHDNKMQFESSSYEGYFLASEKERDLFKLILKKEDELGDRSIMFTVQNED

>  <measuredNumber>
1.53

$$$$
